# target-of-assay: Matrix metalloproteinase-14 (Homo sapiens)
# measurement-description: blockers of MT1-MMP proenzyme processing, primary screen, HT1080 RFP-PRO-GFP cells, GFP/RFP fluorescence (AID 651647)
# experimental-parameters: overnight, at 20 µM, percent of plate control window, DMSO zero
Out of some 360,000 compounds screened, about 220 (0.061%) were called active.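 How the source made its calls: active means GFP/RFP ratio change of at least 30% with cell ATP level not reduced by more than half and red fluorescence within 50% of control; inactive means the rest, inconclusive results apart.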 The sample holds actives, similar compounds and a random draw of the others, so the mix is not that of the screen.
Your answer must be one of the following: active, inactive

| compound | target-of-assay | class-label |
| --- | --- | --- |
| Cc1ccc(C(=O)Nc2nnc(C3=COCCO3)o2)cc1C | Matrix metalloproteinase-14 (Homo sapiens) | inactive |
| CN(C(=O)CSc1cccc[n+]1[O-])C1CCCCC1 | Matrix metalloproteinase-14 (Homo sapiens) | inactive |
| CCC1(C)N(O)C(C)(C)C(c2ccc(OC)cc2)=[N+]1[O-] (stereo unspecified) | Matrix metalloproteinase-14 (Homo sapiens) | inactive |

-- ask Assay result, entry O=c1[nH]nc(SCCS(=O)(=O)c2ccc(F)cc2)n1-c1ccccc1C(F)(F)F — outcome?
-- reply inactive

-- ask Assay result, entry COc1ccc(CCN2CC(C(=O)NCCN3CCNC3=O)CCC2=O)cc1 (stereo unspecified) — outcome?
-- reply inactive

-- ask Assay result, entry CC(C)C(NC(=O)c1cccc(S(=O)(=O)N2CCOCC2)c1)C(=O)NCCc1ccccn1 (stereo unspecified) — outcome?
-- reply inactive

-- ask Assay result, entry O=C(COC(=O)C1CCN(S(=O)(=O)c2ccc3c(c2)OCCO3)CC1)Nc1ccccc1OC(F)F — outcome?
-- reply inactive

-- ask Assay result, entry COc1ccc2oc(C(=O)N(CC(C)C)C3CCS(=O)(=O)C3)c(C)c2c1 (stereo unspecified) — outcome?
-- reply inactive

-- ask Assay result, entry CC1(C)OC(=O)C2=C(C[C@@H](C3CCCCC3)O[C@@H]2c2ccc(Cl)cc2)O1 — outcome?
-- reply inactive

-- ask Assay result, entry O=C(C1CCN(S(=O)(=O)Cc2ccccc2)CC1)N1CCCc2ccccc21 — outcome?
-- reply inactive

-- ask Assay result, entry COc1ccccc1NC1=NC(c2ccc(Cl)cc2)N=C(N)N1 (stereo unspecified) — outcome?
-- reply inactive

-- ask Assay result, entry Cc1ccccc1C(=O)O — outcome?
-- reply inactive

-- ask Assay result, entry CC(=O)c1cccc(-c2cnc3c(NC=O)cc(-c4ccc(N5CCN(C)CC5)cc4)cn23)c1 — outcome?
-- reply inactive

-- ask Assay result, entry COc1cc(C(=S)NCc2ccccc2)cc(Br)c1O — outcome?
-- reply inactive

-- ask Assay result, entry CCN(c1ccccc1)S(=O)(=O)c1ccc2[nH]c(=O)[nH]c2c1 — outcome?
-- reply inactive

-- ask Assay result, entry O=c1ccc2c(-c3ccccc3S(=O)(=O)O)c3ccc(O)c(O)c3oc-2c1O — outcome?
-- reply active

-- ask Assay result, entry O=C(Cn1c(-c2cscn2)nc2ccccc21)Nc1ccc(Cl)cc1 — outcome?
-- reply inactive

-- ask Assay result, entry Cc1ccc(CNC(=O)CC2Sc3ccccc3NC2=O)cc1 (stereo unspecified) — outcome?
-- reply inactive

-- ask Assay result, entry C[C@@H]1CN([C@@H](C)CO)C(=O)c2cc(Br)cnc2O[C@@H]1CN(C)C(=O)C1CCCCC1 — outcome?
-- reply inactive

-- ask Assay result, entry COc1ccc(C(C)C)cc1-c1ccc2nncn2c1 — outcome?
-- reply inactive

-- ask Assay result, entry O=C(CSc1nnc(-c2ccc([N+](=O)[O-])cc2)o1)Nc1ccccn1 — outcome?
-- reply inactive

-- ask Assay result, entry CCCCCCN1C[C@H](O)[C@@H](n2cc(C3CC3)nn2)C[C@@H]1c1ccc(Cl)cc1 — outcome?
-- reply inactive

-- ask Assay result, entry CC(C)(C)n1nnc(CCc2nnn(C(C)(C)C)n2)n1 — outcome?
-- reply inactive

-- ask Assay result, entry CC1(C)CN(Cc2cccnc2)C(=O)[C@H]1CC(=O)Nc1ccc(Br)cc1 — outcome?
-- reply inactive

* * *

# target-of-assay: Matrix metalloproteinase-14 (Homo sapiens) (UniProt P50281)
# measurement-description: blockers of MT1-MMP proenzyme processing, primary screen, HT1080 RFP-PRO-GFP cells, GFP/RFP fluorescence (AID 651647)
# experimental-parameters: overnight, at 20 µM, hits give high values, percent of plate control window, DMSO zero
The campaign covered roughly 360,000 compounds. About 220 (0.061%) were called active. What follows is part of a selection rich in actives, with near analogues and random picks from the rest.
Recorded GFP/RFP ratio change for the following compounds
Express it in %; write the number only.

Study these solved cases before continuing.
| compound | GFP/RFP ratio change / % |
| --- | --- |
| COc1ccc(-c2noc(C(C)NS(=O)(=O)c3ccc(NC(C)=O)cc3)n2)cc1 (stereo unspecified) | -4.06 |
| CN(CC(=O)Nc1ccccc1F)CC(=O)Nc1ccccc1Br | 7.11 |
| O=C(NNc1c2ccccc2nc2ccccc12)c1cc2ccccc2cc1O | 55.7 |
| CCCOC1CCCN(C(=O)c2cc(COc3cncc(Cl)c3)on2)C1 (stereo unspecified) | 0.805 |
| O=C(c1ccco1)N1CCN(C(=O)C2CC(c3ccc(F)cc3)=NO2)CC1 (stereo unspecified) | 1.83 |

Now turn to the next compound.
-- ask Consider the compound shown here: O=C(Cc1ccccn1)c1ccc(O)cc1O What is its recorded GFP/RFP ratio change?
-- reply -2.78

* * *

Recorded GFP/RFP ratio change for the following molecules
# target-of-assay: Matrix metalloproteinase-14 (Homo sapiens) (UniProt P50281)
# measurement-description: blockers of MT1-MMP proenzyme processing, primary screen, HT1080 RFP-PRO-GFP cells, GFP/RFP fluorescence (AID 651647)
# experimental-parameters: overnight, at 20 µM, hits give high values, percent of plate control window, DMSO zero
In all, about 360,000 compounds went through this assay and about 220 (0.061%) were called active. Only a selection was taken, and actives are over-represented in it overall.
Express it in %; write the number only.

Study these solved cases before continuing.
| molecule | target-of-assay | value-kind | reading |
| --- | --- | --- | --- |
| COc1ccc(C(=O)CN2C(=O)NC(C)(c3ccc(C)cc3)C2=O)cc1OC (stereo not given) | Matrix metalloproteinase-14 (Homo sapiens) (UniProt P50281) | GFP/RFP ratio change | 5.51 |
| COc1ccccc1C1CCN(C(=S)Nc2ccc(Br)cc2)CC1 | Matrix metalloproteinase-14 (Homo sapiens) (UniProt P50281) | GFP/RFP ratio change | -1.18 |
| O=C(c1ccc(F)c(S(=O)(=O)N2CCOCC2)c1)N(CCc1ccccc1)Cc1ccccc1 | Matrix metalloproteinase-14 (Homo sapiens) (UniProt P50281) | GFP/RFP ratio change | -8.33 |

-- ask Consider the molecule shown here: Cc1ccccc1S(=O)(=O)NC(=O)C1(C)CCN1C(=O)C1(c2ccc(Cl)cc2)CC1 (stereo not given) What is its recorded GFP/RFP ratio change?
-- reply 0.579

-- ask Consider the molecule shown here: COCCNC(=O)COc1ccc(N(C)S(=O)(=O)c2ccc3ccccc3c2)cc1 What is its recorded GFP/RFP ratio change?
-- reply 0.935

-- ask Consider the molecule shown here: O=c1[nH]snc1-c1c(Cl)cccc1Cl What is its recorded GFP/RFP ratio change?
-- reply -2.44

-- ask Consider the molecule shown here: COc1ccc(NC(=O)C(C)N2c3cccc4cccc(c34)S2(=O)=O)c(OC)c1 (stereo not given) What is its recorded GFP/RFP ratio change?
-- reply 3.17

-- ask Consider the molecule shown here: COC(=O)C(NS(=O)(=O)c1ccc(F)cc1)c1ccccc1 (stereo not given) What is its recorded GFP/RFP ratio change?
-- reply 0.566

-- ask Consider the molecule shown here: COc1ccc(S(=O)(=O)N2CCC(C(=O)NCCC(=O)NCc3cccc(OC)c3)CC2)cc1 What is its recorded GFP/RFP ratio change?
-- reply 0.341

-- ask Consider the molecule shown here: COc1ccc(C)cc1NC(=O)CCCN1C(=O)NC(C)(C)C1=O What is its recorded GFP/RFP ratio change?
-- reply -3.61

* * *

Recorded GFP/RFP ratio change for the following molecules
# target-of-assay: Matrix metalloproteinase-14 (Homo sapiens) (UniProt P50281)
# measurement-description: blockers of MT1-MMP proenzyme processing, primary screen, HT1080 RFP-PRO-GFP cells, GFP/RFP fluorescence (AID 651647)
# experimental-parameters: overnight, at 20 µM, hits give high values, percent of plate control window, DMSO zero
Out of some 360,000 compounds screened, about 220 (0.061%) were called active. This is one part of a sample in which actives are shown more often than they occur.
Express it in %; write the number only.

Study these solved cases before continuing.
| molecule | GFP/RFP ratio change, % |
| --- | --- |
| O=C1CCN(Cc2ccccc2)CCN1[C@H](CSc1ccccc1)c1ccccc1 | -2.64 |
| C/C(=N\c1nc2ccccc2n1C)c1cc(Cl)ccc1O | 1.93 |
| O=C(CSc1nnc(-c2ccoc2)o1)N1CCOCC1 | -1.67 |
| O=S(=O)(Nc1ncccn1)c1ccc(NS(=O)(=O)c2cccc(Cl)c2Cl)cc1 | -0.508 |
| CCc1cc(-c2nnn(CCC3COCCO3)c2CC)ccc1-c1cn(Cc2ccc3ccccc3c2)nn1 (centres undefined) | 2.05 |
| O=C(CP(=O)(c1ccccc1)c1ccccc1)N1CCOCC1 | 1.97 |

-- ask Consider the molecule shown here: CCCCCc1ccc(-c2ccc(C(=O)O)cc2)nc1 What is its recorded GFP/RFP ratio change?
-- reply 0.418

-- ask Consider the molecule shown here: CCn1c(SCC(=O)NC2CC2)nnc1-c1ccncc1 What is its recorded GFP/RFP ratio change?
-- reply 1.37

-- ask Consider the molecule shown here: O=C(NCCCn1ccnc1)C1CCCN(S(=O)(=O)c2cc(Cl)ccc2Cl)C1 (centres undefined) What is its recorded GFP/RFP ratio change?
-- reply 0.609

-- ask Consider the molecule shown here: COCCCNC(=O)/C(C#N)=C/c1c(N2CCCCCC2)nc2ccccn2c1=O What is its recorded GFP/RFP ratio change?
-- reply -0.526

-- ask Consider the molecule shown here: COc1ccc2c(c1)C=CC1(O2)N(CCO)c2ccccc2C1(C)C (centres undefined) What is its recorded GFP/RFP ratio change?
-- reply 52

-- ask Consider the molecule shown here: CN(C)S(=O)(=O)c1cccc(NC(=O)COc2ccc3ccccc3c2)c1 What is its recorded GFP/RFP ratio change?
-- reply 3.9

-- ask Consider the molecule shown here: CSc1ncccc1C(=O)N1CCCC(Nc2ccc(F)c(F)c2)C1 (centres undefined) What is its recorded GFP/RFP ratio change?
-- reply 0.99

-- ask Consider the molecule shown here: Cn1c(=S)sc2ccc3ccccc3c21 What is its recorded GFP/RFP ratio change?
-- reply 2.62
